Biological target: T1, human C1s (human, UniProt P09871 16-688)
T1 construct: Analyte in the Biacore assays; also called hC1s; serum-derived human C1s (CompTech)
T1 sequence: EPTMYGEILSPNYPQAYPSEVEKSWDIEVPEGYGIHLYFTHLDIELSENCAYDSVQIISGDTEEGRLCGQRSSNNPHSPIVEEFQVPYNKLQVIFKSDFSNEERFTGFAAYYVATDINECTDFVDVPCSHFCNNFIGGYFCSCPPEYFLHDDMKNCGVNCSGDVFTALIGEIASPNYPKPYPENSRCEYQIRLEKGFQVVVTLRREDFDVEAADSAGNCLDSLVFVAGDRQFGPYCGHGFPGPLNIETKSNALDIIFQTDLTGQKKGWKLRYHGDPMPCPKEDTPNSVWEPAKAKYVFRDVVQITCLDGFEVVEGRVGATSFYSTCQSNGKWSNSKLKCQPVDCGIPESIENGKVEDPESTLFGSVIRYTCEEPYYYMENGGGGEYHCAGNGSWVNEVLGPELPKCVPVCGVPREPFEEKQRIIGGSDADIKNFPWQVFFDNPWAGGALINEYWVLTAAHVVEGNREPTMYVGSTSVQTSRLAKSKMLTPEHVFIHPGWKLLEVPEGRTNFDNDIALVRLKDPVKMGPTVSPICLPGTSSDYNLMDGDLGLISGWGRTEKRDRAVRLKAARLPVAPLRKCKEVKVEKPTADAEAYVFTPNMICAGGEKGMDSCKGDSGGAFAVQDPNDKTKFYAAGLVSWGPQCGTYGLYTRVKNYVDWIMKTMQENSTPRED
Test: SPR (Biacore T200, 37C), Ab captured on protein A/G; pH 5.8, 3 uM Ca
List of koff values.
ASSAY_ENDPOINT: koff (s⁻¹)

1) C1_IPN92H0166-SG4GK/IPN93L0024-SK1 (antibody, human IgG4 S228P, kappa, name in Kabat numbering, V domains shown, Substitutions from IPN009VH2, Kabat numbering; also called IPN92H0166/IPN93L0024) VH: EVMLVESGGGLVKPGGSLRLSCAASGFTFSNYAMSWVRQAPGKGLEWVATISSGGSHTYYEDSVKGRFTISRDNSKDTLYLQMNSLRAEDTALYYCARLFTGHAMDYWGQGTLVTVSS VL: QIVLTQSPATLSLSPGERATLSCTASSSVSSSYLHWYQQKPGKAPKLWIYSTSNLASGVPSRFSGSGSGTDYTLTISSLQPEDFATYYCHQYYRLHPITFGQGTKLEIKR = 0.687
2) C1_IPN92H0080-SG4GK/IPN93L0024-SK1 (antibody, human IgG4 S228P, kappa, name in Kabat numbering, V domains shown, Substitutions from IPN009VH2, Kabat numbering; also called IPN92H0080/IPN93L0024) VH: EVMLVESGGGLVKPGGSLRLSCAASGFTFSNRAMSWVRQAPGKGLEWVATISSGGSHTYYLDSVKGRFTISRDNSKDTLYLQMNSLRAEDTALYYCARLFTGHAMDYWGQGTLVTVSS VL: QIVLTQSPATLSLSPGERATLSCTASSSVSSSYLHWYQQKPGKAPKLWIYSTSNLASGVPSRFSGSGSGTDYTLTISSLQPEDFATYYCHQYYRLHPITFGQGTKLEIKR = 0.00651
3) C1_IPN92H0117-SG4GK/IPN93L0024-SK1 (antibody, human IgG4 S228P, kappa, name in Kabat numbering, V domains shown, Substitutions from IPN009VH2, Kabat numbering; also called IPN92H0117/IPN93L0024) VH: EVMLVESGGGLVKPGGSLRLSCAASGFTFSNYAMSWVRQAPGKGLEWVATISQGGSHTYYLDSVKGRFTISRDNSKDTLYLQMNSLRAEDTALYYCARLFTGHAMDYWGQGTLVTVSS VL: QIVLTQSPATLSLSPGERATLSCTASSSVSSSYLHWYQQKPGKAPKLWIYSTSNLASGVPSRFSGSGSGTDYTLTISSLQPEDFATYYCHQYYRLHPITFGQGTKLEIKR = 0.00542

Every entry's value here was drawn from patent US20210032365A1.
